Task for the reader: assign each of the following molecules its reported log10 of LC50.
System: Daphnia magna
Settings: incubation period 24 h
All values: log10 LC50 [µM].

Asked: Look up Daphnia magna data: log10 of LC50 of `[Cl][Pt-2]([Cl])([Cl])[Cl].[K+].[K+]` , then report it.
Given back: 1.44

Asked: Look up Daphnia magna data: log10 of LC50 of `O=[N+]([O-])[O-].O=[N+]([O-])[O-].[Cu+2]` , then report it.
Given back: 0.87

Asked: Look up Daphnia magna data: log10 of LC50 of COc1cccc(C=NNC(=O)c2ccncc2)c1[O-].[Cl-].[Pt+2] [complex 8, [Pt(L)(Cl)]] , then report it.
Given back: 2.67

Asked: Look up Daphnia magna data: log10 of LC50 of COc1cccc(C=NNC(=O)c2ccncc2)c1[O-].[Cl-].[Ni+2] [complex 7, [Ni(L)(Cl)]] , then report it.
Given back: 2.55

Now for another entry.
Asked: Look up Daphnia magna data: log10 of LC50 of `[Cl][Ni][Cl]` , then report it.
Given back: 2.00

---

Tested on: MCF-7 human breast cancer cell line
Experiment: Alamar blue cell viability assay
Format: cell-based
Settings: 48 h treatment, 10 µM, relative to untreated control
Classify: criterion met when Viability % is strictly less than 20%; criterion not met when Viability % is not.

As a guide, the following entries are already answered.
Asked: Confirm or reject: Viability % of COc1cccc(C=NNC(=O)c2ccncc2)c1[O-].COc1cccc(C=NNC(=O)c2ccncc2)c1[O-].[Zn+2] [complex 6, [Zn(L)2]] lies strictly below 20%
Given back: criterion met

Asked: Confirm or reject: Viability % of COc1cccc(C=NNC(=O)c2ccncc2)c1[O-].COc1cccc(C=NNC(=O)c2ccncc2)c1[O-].[Co+2] [complex 5, [Co(L)2]] lies strictly below 20%
Given back: criterion not met

Asked: Confirm or reject: Viability % of COc1cccc(C=NNC(=O)c2ccncc2)c1[O-].[Cl-].[Pt+2] [complex 8, [Pt(L)(Cl)]] lies strictly below 20%
Given back: criterion not met

Asked: Confirm or reject: Viability % of CC(=O)[O-].COc1cccc(C=NNC(=O)c2ccncc2)c1[O-].[Cu+2] [complex 2, [Cu(L)(CH3COO)]] lies strictly below 20%
Given back: criterion met

Asked: Confirm or reject: Viability % of COc1cccc(C=NNC(=O)c2ccncc2)c1[O-].O.O=[N+]([O-])[O-].[Cu+2] [complex 3, [Cu(L)(NO3)]·H2O] lies strictly below 20%
Given back: criterion met

Asked: Confirm or reject: Viability % of COc1cccc(C=NNC(=O)c2ccncc2)c1[O-].[Cl-].[Ni+2] [complex 7, [Ni(L)(Cl)]] lies strictly below 20%
Given back: criterion not met

Asked: Confirm or reject: Viability % of COc1cccc(C=NNC(=O)c2ccncc2)c1[O-].O.[Cu+2].[O-][Cl+3]([O-])([O-])[O-] [complex 4, [Cu(L)(ClO4)]·H2O] lies strictly below 20%
Given back: criterion met

Now look at this entry.
Asked: Confirm or reject: Viability % of COc1cccc(C=NNC(=O)c2ccncc2)c1[O-].O.O.[Cl-].[Cu+2] [complex 1, [Cu(L)(Cl)]·2H2O] lies strictly below 20%
Given back: criterion met

---

System: Staphylococcus aureus, ATCC 25923
Test: Antibacterial activity, serial dilutions in liquid broth (MIC/MBC)
Type: cell-based
Details: S. aureus (G +)
Task for the reader: assign each of the following compounds its reported MIC.
One number for each entry, in µg/mL.

Asked: Please report MIC for the following compound: COc1cccc(C=NNC(=O)c2ccncc2)c1[O-].O.O=[N+]([O-])[O-].[Cu+2] [complex 3, [Cu(L)(NO3)]·H2O]
Given back: 0.07

Asked: Please report MIC for the following compound: COc1cccc(C=NNC(=O)c2ccncc2)c1[O-].[Cl-].[Pt+2] [complex 8, [Pt(L)(Cl)]]
Given back: 0.7

Asked: Please report MIC for the following compound: CC(=O)[O-].COc1cccc(C=NNC(=O)c2ccncc2)c1[O-].[Cu+2] [complex 2, [Cu(L)(CH3COO)]]
Given back: 0.015

Asked: Please report MIC for the following compound: COc1cccc(C=NNC(=O)c2ccncc2)c1[O-].COc1cccc(C=NNC(=O)c2ccncc2)c1[O-].[Co+2] [complex 5, [Co(L)2]]
Given back: 0.7

Quick request: MIC for each listed item, please.
1. COc1cccc(C=NNC(=O)c2ccncc2)c1[O-].[Cl-].[Ni+2] [complex 7, [Ni(L)(Cl)]]
2. COc1cccc(C=NNC(=O)c2ccncc2)c1[O-].COc1cccc(C=NNC(=O)c2ccncc2)c1[O-].[Zn+2] [complex 6, [Zn(L)2]]
3. NC(=O)N/N=C/c1ccc([N+](=O)[O-])o1 [Furacillinum, reference compound]
4. COc1cccc(C=NNC(=O)c2ccncc2)c1[O-].O.O.[Cl-].[Cu+2] [complex 1, [Cu(L)(Cl)]·2H2O]
5. COc1cccc(C=NNC(=O)c2ccncc2)c1[O-].O.[Cu+2].[O-][Cl+3]([O-])([O-])[O-] [complex 4, [Cu(L)(ClO4)]·H2O]

Given back:
0.7
63
9.35
0.015
0.7
